Reference for the values: ChEMBL document CHEMBL1125569

Biological target: Serotonin 3 (5-HT3) receptor (Rattus norvegicus, UniProt P35563+Q9JJ16)
Sequence (P35563 whole entry): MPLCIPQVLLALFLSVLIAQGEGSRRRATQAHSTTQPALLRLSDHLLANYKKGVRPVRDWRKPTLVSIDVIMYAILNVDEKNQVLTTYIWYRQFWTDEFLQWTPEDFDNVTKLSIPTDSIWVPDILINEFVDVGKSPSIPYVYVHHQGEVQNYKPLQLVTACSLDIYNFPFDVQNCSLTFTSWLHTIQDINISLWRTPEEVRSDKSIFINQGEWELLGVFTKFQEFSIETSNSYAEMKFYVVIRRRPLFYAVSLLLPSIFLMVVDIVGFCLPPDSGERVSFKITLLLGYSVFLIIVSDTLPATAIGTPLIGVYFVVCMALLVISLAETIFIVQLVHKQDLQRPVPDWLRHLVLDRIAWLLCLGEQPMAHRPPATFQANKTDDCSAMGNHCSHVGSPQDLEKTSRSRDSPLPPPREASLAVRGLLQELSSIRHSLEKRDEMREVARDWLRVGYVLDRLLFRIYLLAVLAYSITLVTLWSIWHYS
Sequence (Q9JJ16 whole entry): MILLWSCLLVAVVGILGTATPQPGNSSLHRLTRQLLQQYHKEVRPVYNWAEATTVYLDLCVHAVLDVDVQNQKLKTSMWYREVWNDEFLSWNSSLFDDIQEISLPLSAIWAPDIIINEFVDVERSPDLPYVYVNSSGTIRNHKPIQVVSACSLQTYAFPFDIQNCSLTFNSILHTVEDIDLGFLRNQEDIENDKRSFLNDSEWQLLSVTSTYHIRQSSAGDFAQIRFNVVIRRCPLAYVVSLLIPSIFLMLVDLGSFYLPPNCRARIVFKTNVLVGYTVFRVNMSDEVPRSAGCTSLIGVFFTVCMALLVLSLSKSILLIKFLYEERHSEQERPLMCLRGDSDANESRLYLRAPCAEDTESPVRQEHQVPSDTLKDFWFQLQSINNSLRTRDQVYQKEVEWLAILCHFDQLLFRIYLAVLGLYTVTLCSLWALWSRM
Assay: Ability to displace [3H]quipazine binding to 5-hydroxytryptamine 3 receptor sites in NG 108-15.
Format: protein-complex assay
Assay readout: log10 of Ki (log10 of the value in pM)
Values are log10 of Ki in pM.

Examples with answers:
I'd like to know its log10 of Ki. The compound in question is CCCCCCOc1cc(C(=O)OC2CC3CCC(C2)N3C)c2ccccc2n1 (stereo not given)
3.51

I'd like to know its log10 of Ki. The compound in question is CC(C)Oc1cc(C(=O)NC2CC3CCC(C2)N3C)c2ccccc2n1 (stereo not given)
4.72

I'd like to know its log10 of Ki. The compound in question is CCCn1c(=O)cc(C(=O)OC2CC3CCC(C2)N3C)c2ccccc21 (stereo not given)
2.65

I'd like to know its log10 of Ki. The compound in question is CCCCOc1cc(C(=O)OC2CC3CCC(C2)N3C)c2ccccc2n1 (stereo not given)
2.59

I'd like to know its log10 of Ki. The compound in question is CN1C2CCC1CC(OC(=O)c1cc(=O)n(-c3ccccc3)c3ccccc13)C2 (stereo not given)
2.71

I'd like to know its log10 of Ki. The compound in question is COc1cc(C(=O)OC2CC3CCC(C2)N3C)c2ccccc2n1 (stereo not given)
2.76

---
I'd like to know its log10 of Ki. The compound in question is CCCOc1cc(C(=O)OC2CC3CCC(C2)N3C)c2ccccc2n1 (stereo not given)
2.51

I'd like to know its log10 of Ki. The compound in question is CC(C)n1c(=O)cc(C(=O)OC2CC3CCC(C2)N3C)c2ccccc21 (stereo not given)
1.51

I'd like to know its log10 of Ki. The compound in question is CN1C2CCC1CC(NC(=O)c1cc(=O)n(-c3ccccc3)c3ccccc13)C2 (stereo not given)
4.80

I'd like to know its log10 of Ki. The compound in question is CCCCCn1c(=O)cc(C(=O)OC2CC3CCC(C2)N3C)c2ccccc21 (stereo not given)
2.98
